Would you mind telling me the reported normalized growth of each entry?
- PROTOCOL: chemical genetic growth profiling, strain panel (AID 1159580);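 further: tested at 20 µM; growth read once vehicle control cultures reached saturation at 30 °C; 1 = growth at the plate median or of vehicle wells; lower values mean less growth of the strain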
- EXPERIMENTAL_PARAMETERS: S. cerevisiae deletion strains, growth OD, locus YDR101C, strain arx1, stronger effect = lower value
Out of some 5,500 compounds screened, about 2,000 (36%) were called active. Roughly 18% stayed inconclusive and do not appear here. This is one part of the list.

INSERT INTO measurements (molecule, result) VALUES
  ('CC[C@@H](C(=O)O)[C@@H]1O[C@@H]([C@@H](C)[C@H](O)[C@H](C)C(=O)[C@H](CC)[C@H]2O[C@]3(C=C[C@@H](O)[C@]4(CC[C@@](C)(C5CC[C@](O)(CC)[C@H](C)O5)O4)O3)[C@H](C)C[C@@H]2C)[C@@H](C)C[C@H]1C (some centres not stated)', '0.569 (active)'),
  ('Oc1ccc(/C=C/c2cc(O)cc(O)c2)cc1', '0.873 (active)'),
  ('CC(=O)O[C@H]1C[C@@H](OC(C)=O)C(C)(C)C2C[C@@H](OC(C)=O)[C@]3(C)C(CC[C@@]4(C)[C@H](c5ccoc5)C(=O)[C@H]5O[C@]543)[C@]21C (some centres not stated)', '0.994 (inactive)'),
  ('CCOC(=O)CCCCCCCCCCCCC1C=CCC1 (configuration not stated)', '0.0619 (active)'),
  ('CCOC(=O)c1ccc(N)cc1', '1.01 (inactive)');

I have 4 molecules here; please give me normalized growth for each one.
1. CN(Cc1cnc2nc(N)nc(N)c2n1)c1ccc(C(=O)NC(CCC(=O)O)C(=O)O)cc1 (configuration not stated)
2. CCOC(=O)C1=C[C@]2(CC)CCCN3CCc4c(n1c1ccccc41)[C@@H]32
3. CCN(CC)CCOC(=O)C(Cc1cccc2ccccc12)CC1CCCO1 (configuration not stated)
4. OCC(S)CS (configuration not stated)

1: 0.994 (inactive); 2: 0.969 (inactive); 3: 1.02 (inactive); 4: 0.978 (inactive)

Parameters: items (list). Returns: normalized growth for each item.
1. CCOP(=S)(OCC)SCCSCC
2. CN(Cc1cc(Br)cc(Br)c1N)C1CCCCC1
3. C=CC1=C(C)/C(=C/c2[nH]c(Cc3[nH]c(/C=C4\NC(=O)C(C)=C4C=C)c(C)c3CCC(=O)O)c(CCC(=O)O)c2C)NC1=O

1. 0.991 (inactive)
2. 0.999 (inactive)
3. 1.03 (inactive)

The origin of these recorded values is PubChem BioAssay AID1159580.
